# Kd values compiled below
Tested System: linear tetra-SUMO2 (4×SUMO2-ΔN11), P61956
Sequence (P61956 other isoform, or with tags, fused parts or gaps mutant): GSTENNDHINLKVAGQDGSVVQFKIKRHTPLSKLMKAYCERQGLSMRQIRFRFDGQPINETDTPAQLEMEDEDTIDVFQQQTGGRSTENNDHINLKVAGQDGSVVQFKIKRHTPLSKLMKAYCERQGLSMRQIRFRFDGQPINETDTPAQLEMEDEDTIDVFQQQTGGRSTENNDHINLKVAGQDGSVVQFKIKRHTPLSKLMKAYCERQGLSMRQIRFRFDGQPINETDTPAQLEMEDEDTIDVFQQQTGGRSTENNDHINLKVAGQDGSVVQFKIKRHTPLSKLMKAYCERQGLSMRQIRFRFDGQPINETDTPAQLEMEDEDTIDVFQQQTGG
Test Summary: ITC (calorimetric titration)
Experimental Context: chain shown with the change
Kindly provide the numeric value in nM only, without the unit symbol.

Binder: RNF4 1–125 (RNF4-SIM domain, wt), P78317 SIM4mut (protein) MSTRKRRGGAINSRQAQKRTREATSTPEISLEAEPIELVETAGDEIVDLTCESLEPVVVDLTHNDSAAAADERRRPRRNARRLPQDHADSCVVSSDDEELSRDRDVYVTTHTPRNARDEGATGLR
Endpoint: Kd
Endpoint Result: 2800

Kindly review the next binder as well.
// RNF4 1–125 (RNF4-SIM domain, wt), P78317 SIM3mut (protein) MSTRKRRGGAINSRQAQKRTREATSTPEISLEAEPIELVETAGDEIVDLTCESLEPVVAAAAHNDSVVIVDERRRPRRNARRLPQDHADSCVVSSDDEELSRDRDVYVTTHTPRNARDEGATGLR : Kd value = 2200
